We begin with pIC50 values for human GST-DYRK1A (Homo sapiens, UniProt Q13627), as collected from the published literature.
pIC50: −log10 of the molar value.

Solved cases below.
{"columns": ["compound", "target.desc", "pIC50"],
 "data": [
  ["O=c1ccc2cnc(Nc3ccc(N4CCNCC4)cc3)nc2n1[C@@H]1CC2CCC1C2 (stereo partly shown)", "human GST-DYRK1A (Homo sapiens, UniProt Q13627)", 5.93],
  ["COc1cc(P2(=O)CCN(C3CCOCC3)CC2)ccc1Nc1nc(NC2CCCC2)c2cc[nH]c2n1", "human GST-DYRK1A (Homo sapiens, UniProt Q13627)", "6.00 to 6.52"]
]}

Please state recorded pIC50 (tested on human GST-DYRK1A (Homo sapiens, UniProt Q13627)) of CCNc1nc(Nc2ccc(S(C)(=O)=O)cc2OC)nc2[nH]cc(C#N)c12
6.00 to 6.52

Would you kindly repeat that for N#Cc1c[nH]c2nc(Nc3ccc(C(=O)N4CCOCC4)c4c3OCO4)nc(NC3CCCCC3)c12 ?
6.00 to 6.52

Query CC(=O)c1c(C)c2cnc(Nc3ccc(N4CCNCC4)cc3)nc2n([C@@H]2CC3CCC2C3)c1=O (stereo partly shown) next
5.44

What about this compound? CCNc1cc(Nc2ccc(S(=O)(=O)N3CCC(N4CCOCC4)CC3)cc2OC)nc2[nH]cc(C(F)(F)F)c12
6.52 to 7.00

Now the compound N#Cc1c[nH]c2nc(Nc3ccc(C(=O)N4CCN(C5CC5)CC4)c4c3OCCO4)nc(NC3CCCC3)c12
6.00 to 6.52

Note, next up: CNc1cc(Nc2ccc(C(=O)N3C[C@@H]4C[C@H]3CO4)c3c2OCCO3)nc2[nH]cc(C(F)(F)F)c12
> 7.00

Please do the same for CS(=O)(=O)CCNc1cc(Nc2ccc(C(=O)N3CCOCC3)c3c2OCCO3)nc2[nH]cc(C#N)c12 as well.
6.00 to 6.52

Now consider COc1cc(S(C)(=O)=O)ccc1Nc1nc(NC(C)C)c2c(C#N)c[nH]c2n1 .
6.00 to 6.52

Consider next the compound COc1cc(S(=O)(=O)N2CCC(N3CCOCC3)CC2)ccc1Nc1nc(NC2CCCCC2)c2c(C#N)c[nH]c2n1 in the same way.
6.00 to 6.52

* * *

Multi-source literature compilation: IC50 on human GST-DYRK1A (Homo sapiens).

Reference set (3 entries):
{"columns": ["structure.string", "target.desc", "IC50"],
 "data": [
  ["CCCNc1nc(Nc2ccc(C(=O)N3CCC(N4CCOCC4)CC3)c3c2OCCO3)nc2[nH]cc(C#N)c12", "human GST-DYRK1A (Homo sapiens)", "0.101 to 0.3 µM"],
  ["CCCCNc1nc(Nc2ccc(P(C)(C)=O)cc2OC)nc2[nH]cc(C(F)(F)F)c12", "human GST-DYRK1A (Homo sapiens)", "0.301 to 1 µM"],
  ["CCNc1nc(Nc2ccc(C(=O)N3CCOCC3)c3c2OCCO3)nc2[nH]cc(C#N)c12", "human GST-DYRK1A (Homo sapiens)", "0.301 to 1 µM"]
]}

Param item = N#Cc1c[nH]c2nc(Nc3ccc(C(=O)N4CCC(N5CCOCC5)CC4)c4c3OCC4)nc(NC3CCCCC3)c12 ; retrieve measured IC50.
< 0.1 µM

Repeat for the following compound: COc1cc(S(C)(=O)=O)ccc1Nc1cc(NC2CC2)c2c(C#N)c[nH]c2n1
0.301 to 1 µM

Input CC[C@@H](CO)Nc1nc(NCc2ccc(-c3ccccn3)cc2)n2ncc(C(C)C)c2n1
0.5 µM

Try this compound too: CC(C)Nc1nc(Nc2ccc(C(=O)N3CCOCC3)c3c2OCC3)nc2[nH]cc(C(F)(F)F)c12
0.301 to 1 µM

Moving on to the next compound: N#Cc1c[nH]c2nc(Nc3ccc(C(=O)N4CCOCC4)c4c3OCCO4)nc(NC3COC3)c12
0.301 to 1 µM

* * *

Published IC50 for human GST-DYRK1A (Homo sapiens, UniProt Q13627), assembled from different documents, is shown next.

Reference set, count: 3
{"columns": ["compound", "IC50"],
 "data": [
  ["CCNc1cc(Nc2ccc(P3(=O)CCN(C4COC4)CC3)cc2OC)nc2[nH]cc(C#N)c12", "301 to 1000 nM"],
  ["COc1cc(-c2c[nH]c3ncc(C(N)=O)cc23)cc2c(-c3cccnc3)ccnc12", "> 100 nM"],
  ["Cc1n[nH]c2ncc(NC3CCCN(Cc4ccc(Cl)c(Cl)c4)C3)cc12 (stereo not shown)", "> 500 nM"]
]}

Test system human GST-DYRK1A (Homo sapiens, UniProt Q13627); read-out IC50; what value for CC(=O)Nc1nc2ccc(C(N)=O)cc2s1 ?
15700 nM

What about COCC(C)(C)Nc1nc(Nc2ccc(C(=O)N3CCOCC3)c3c2OCCO3)nc2[nH]cc(C#N)c12 ?
301 to 1000 nM

Now the same for COc1cc(S(C)(=O)=O)ccc1Nc1cc(NCCS(C)(=O)=O)c2cc[nH]c2n1
301 to 1000 nM

Try this compound too: COc1cc(S(=O)(=O)N2CCOCC2)ccc1Nc1cc(NC2CCCCC2)c2c(C(F)(F)F)c[nH]c2n1
301 to 1000 nM

Quick one: COc1cc(S(=O)(=O)N2CCC(N3CCOCC3)CC2)ccc1Nc1cc(NC2CC2)c2cc[nH]c2n1
301 to 1000 nM

Entry NC(=O)c1cnc2[nH]cc(-c3cc(F)c4ncccc4c3)c2c1 please
< 10 nM

Note, next up: N#Cc1c[nH]c2nc(Nc3ccc(C(=O)N4CCC(N5CCOCC5)CC4)c4c3OCCO4)cc(NC3CC3)c12
301 to 1000 nM

Further, for CC[C@H](C)Nc1nc(Nc2ccc(S(C)(=O)=O)cc2OC)nc2[nH]cc(C#N)c12 ?
301 to 1000 nM

Can you check COc1cc(S(=O)(=O)N2CCC(N3CCOCC3)CC2)ccc1Nc1nc(NC2CCC2)c2c(C(F)(F)F)c[nH]c2n1 next?
301 to 1000 nM

Try COc1cc(S(=O)(=O)N2CCC(N3CCOCC3)CC2)ccc1Nc1cc(NC2CCCC2)c2c(C#N)c[nH]c2n1 next.
301 to 1000 nM

Param item: COc1cc(S(=O)(=O)N2CCC(N3CCOCC3)CC2)ccc1Nc1nc(NC(C)C)c2c(C#N)c[nH]c2n1
301 to 1000 nM

Further, for CCNc1cc(Nc2ccc(C(=O)N3CCN(C4COC4)CC3)c3c2OCC3)nc2[nH]cc(C(F)(F)F)c12 ?
< 100 nM

Follow-up item: CCCNc1cc(Nc2ccc(S(C)(=O)=O)cc2OC)nc2[nH]ccc12
301 to 1000 nM

* * *

// cross-source set; read-out = IC50; system = human GST-DYRK1A (Homo sapiens, UniProt Q13627)

{"columns": ["compound", "observation.type", "experimental.result"],
 "data": [
  ["Cc1cccc(NC(=O)Nc2cccc3c2C2CC4(CCN2C3=O)OCCO4)n1 (centres unmarked)", "IC50", "> 10000 nM"],
  ["CCCNc1nc(Nc2ccc(P(C)(C)=O)cc2OC)nc2[nH]cc(C#N)c12", "IC50", "101 to 300 nM"],
  ["O=C(c1ccc(Nc2nc(NC3CC3)c3c(C(F)(F)F)c[nH]c3n2)c2c1CCO2)N1CCOCC1", "IC50", "301 to 1000 nM"],
  ["COCCNc1nc(Nc2ccc(S(=O)(=O)N3CCC(N4CCOCC4)CC3)cc2OC)nc2[nH]cc(C#N)c12", "IC50", "101 to 300 nM"],
  ["COc1cc(S(=O)(=O)N2CCOCC2)ccc1Nc1nc(N[C@H]2CCOC2)c2c(C#N)c[nH]c2n1", "IC50", "301 to 1000 nM"]
]}

What does the record list as IC50 for CCNc1cc(Nc2ccc(C(=O)N3CCOCC3)c3c2OCCO3)nc2[nH]cc(C#N)c12 ?
301 to 1000 nM

Moving on to CN1CC(OC(=O)Nc2cc3cc(-c4cnn(C)c4)ccc3cn2)C1
≤ 10 nM

Another compound to look at: CCNc1cc(Nc2ccc(C(=O)N3C[C@@H](C)O[C@@H](C)C3)c3c2OCC3)nc2[nH]cc(C(F)(F)F)c12
< 100 nM

* * *

pIC50: −log10 of the molar value.
// read-out pIC50, gathered for human GST-DYRK1A (Homo sapiens) from published studies

Query: pIC50; subject: Clc1c[nH]c2ncc(-c3cncc(N4CCOCC4)n3)cc12
> 6.30

Could you do the same for O=C(c1ccc(Nc2nc(NC3CCC3)c3c(C(F)(F)F)c[nH]c3n2)c2c1OCCO2)N1CCC(N2CCOCC2)CC1 , please?
6.52 to 7.00

Quick one: N#Cc1c[nH]c2nc(Nc3ccc(C(=O)N4CCOCC4)c4c3OCCO4)nc(N[C@@H]3CCOC3)c12
6.00 to 6.52

Also need CCNc1nc(Nc2ccc(C(=O)N3CCOCC3)c3c2OCO3)nc2[nH]cc(C(F)(F)F)c12 , thanks.
> 7.00

Another molecule: O=C(c1ccc(Nc2nc(NC3CCC3)c3cc[nH]c3n2)c2c1OCCO2)N1CCOCC1
6.00 to 6.52

Could you do the same for CNc1nc(Nc2ccc(S(C)(=O)=O)cc2OC)nc2[nH]cc(C(F)(F)F)c12 , please?
6.52 to 7.00

Would you mind doing COC1CCN2C(=O)c3cccc(NC(=O)Nc4ccn(C)n4)c3C2C1 (stereo not shown) as well?
< 5.00

Item: CC#C[C@H]1[C@H]([C@H](C)O)NC(=O)N1c1nc2c3c(ccc2s1)OCC3
7.00 to 8.00

# repeat for COc1cc(P2(=O)CCN(C3CC3)CC2)ccc1Nc1nc(NC2CCOCC2)c2c(C#N)c[nH]c2n1
6.00 to 6.52
